Biological target: VR1 (rat) (Rattus norvegicus)
Construct: from tissue; host or cells: primary cells dissociated from rat dorsal root ganglia
Sequence (O35433 whole entry): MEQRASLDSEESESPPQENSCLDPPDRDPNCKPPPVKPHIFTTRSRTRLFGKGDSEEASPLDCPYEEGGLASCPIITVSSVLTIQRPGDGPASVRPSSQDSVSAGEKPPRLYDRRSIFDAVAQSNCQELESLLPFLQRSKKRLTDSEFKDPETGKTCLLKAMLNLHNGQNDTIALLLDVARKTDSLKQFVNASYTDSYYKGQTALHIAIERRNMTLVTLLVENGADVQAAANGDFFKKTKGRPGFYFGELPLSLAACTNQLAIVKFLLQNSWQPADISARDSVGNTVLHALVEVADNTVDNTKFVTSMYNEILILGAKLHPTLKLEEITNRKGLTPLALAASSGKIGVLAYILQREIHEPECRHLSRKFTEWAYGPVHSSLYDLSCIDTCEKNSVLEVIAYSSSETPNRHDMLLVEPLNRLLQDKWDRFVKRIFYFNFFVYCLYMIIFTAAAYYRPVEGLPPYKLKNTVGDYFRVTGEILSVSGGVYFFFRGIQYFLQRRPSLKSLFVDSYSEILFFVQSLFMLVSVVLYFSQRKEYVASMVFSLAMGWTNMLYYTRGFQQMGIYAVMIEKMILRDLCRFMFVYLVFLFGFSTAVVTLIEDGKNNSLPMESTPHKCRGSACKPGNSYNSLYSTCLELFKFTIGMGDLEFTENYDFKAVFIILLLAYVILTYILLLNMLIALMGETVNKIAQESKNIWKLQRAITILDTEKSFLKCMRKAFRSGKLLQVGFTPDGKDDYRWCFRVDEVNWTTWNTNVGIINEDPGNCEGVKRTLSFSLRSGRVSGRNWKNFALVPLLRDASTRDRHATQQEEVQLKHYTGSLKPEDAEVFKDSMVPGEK
Assay: Functional FLIPR Ca2+ inflow assay on rat-species vanilloid receptor 1 in rat dorsal root ganglia cells
Type: cell-based
Conditions: test compound 10 μM; Ca2+ signal relative to 10 μM capsaicin (CP); read-out: VR1 (rat) (% stimulation compared to 10 μM CP)
Reported values of activation at 10 µM for individual entries
// return numeric value only (unit: %, not printed)

CC(C)(C)c1ccc(NC(=O)C2CCC3(CC2)CC(c2ccccc2)=NO3)cc1 (stereo not shown) :: 60

**Query** Can you look up the measured activation at 10 µM of COc1cccc(C2=NOC3(CCC(C(=O)Nc4ccc(C(C)(C)C)cc4)CC3)C2)c1 (stereo not shown) for me?
**Result** 87

**Query** Can you look up the measured activation at 10 µM of CC(C)(C)c1ccc(NC(=O)C2CCC3(CC2)CC(C(=O)N2CCN(c4ncccc4Cl)CC2)=NO3)cc1 (stereo not shown) for me?
**Result** 61

**Query** Can you look up the measured activation at 10 µM of CC(C)(C)[C@H]1CC[C@]2(CC1)CC(C(=O)NCc1ccc(NS(C)(=O)=O)c(F)c1)=NO2 for me?
**Result** 1.04

---

Target: VR1 (rat) (Rattus norvegicus)
Construct: from tissue; host or cells: primary cells dissociated from rat dorsal root ganglia
Test: Functional FLIPR Ca2+ inflow assay on rat-species vanilloid receptor 1 in rat dorsal root ganglia cells
Format: cell-based
Conditions: test compound 10 μM; Ca2+ signal relative to 10 μM capsaicin (CP); read-out: VR1 (rat) (% stimulation compared to 10 μM CP)
quantity_name: activation at 10 µM (%)
// return numeric value only (unit: %, not printed)

**Query** Can you look up the measured activation at 10 µM of CC(C)(C)[C@H]1CC[C@@]2(CC1)CC(C(=O)NCc1ccc(NS(C)(=O)=O)c(F)c1)=NO2 [Example 7] for me?
**Result** 0.23

**Query** Can you look up the measured activation at 10 µM of CC(C)(C)C1CCC2(CC1)CC(C(=O)N1CCc3cc(O)c(O)cc3C1)=NO2 (stereo not drawn) [Example 12] for me?
**Result** 112

---

Biological target: VR1 (rat) (Rattus norvegicus)
Construct: from tissue; host or cells: primary cells dissociated from rat dorsal root ganglia
Assay: Functional FLIPR Ca2+ inflow assay on rat-species vanilloid receptor 1 in rat dorsal root ganglia cells
Format: cell-based
Settings: test compound 10 μM; Ca2+ signal relative to 10 μM capsaicin (CP)
quantity_name: VR1 (rat) (% stimulation compared to 10 μM CP) (%)
// return numeric value only (unit: %, not printed)

COc1cc2c(cc1OC)CN(C(=O)C1=NO[C@]3(CC[C@@H](C(C)(C)C)CC3)C1)CC2 [Example 19] :: 70.81
CC(C)(C)C1CCC2(CC1)CC(C(=O)NCc1ccncc1)=NO2 (stereo not shown) [Example 23] :: 55.21
CC(C)(C)[C@H]1CC[C@@]2(CC1)CC(C(=O)N1CCN(c3ncccc3C(F)(F)F)CC1)=NO2 [Example 9] :: 1.05

Could you now consider this next molecule?
**Query** # value lookup — system VR1 (rat) (Rattus norvegicus), readout VR1 (rat) (% stimulation compared to 10 μM CP), item CC(C)(C)C1CCC2(CC1)CC(C(=O)NCc1ccc(NS(C)(=O)=O)cc1)=NO2 (stereo not shown) [Example 2]
**Result** −15.97

---

Target: VR1 (human) (Homo sapiens)
Construct: expressed in transfected cells; host or cells: CHO K1 cells (ECACC)
Assay: Functional FLIPR Ca2+ inflow assay on VR1 (human), CHO K1 cells stably transfected with the VR1 gene
Format: cell-based
Conditions: test compound 10 μM; Ca2+ signal relative to 10 μM capsaicin (CP)
Excerpt: II. Functional Testing Carried Out on the Vanilloid Receptor (VR1) The agonistic or antagonistic effect of the substances to be tested can also be determined on the vanilloid receptor (VR1) using the following assay. According to this assay, the Ca^2+ inflow is quantified through the channel using a Ca^2+-sensitive dye (type Fluo-4, Molecular Probes Europe BV, Leiden, Netherlands) in a fluorescent imaging plate reader (FLIPR, Molecular Devices, Sunnyvale, USA). […]
quantity_name: VR1 (human) (% stimulation compared to 10 μM CP) (%)
// return numeric value only (unit: %, not printed)

Past entries and their recorded results:
COc1cc2c(cc1OC)CN(C(=O)C1=NO[C@]3(CC[C@@H](C(C)(C)C)CC3)C1)CC2 :: 13.41
CC(C)(C)[C@H]1CC[C@@]2(CC1)CC(C(=O)N1CCN(c3ccc(O)cc3)CC1)=NO2 :: −0.05
CC(C)(C)[C@H]1CC[C@@]2(CC1)CC(C(=O)N1CCN(c3nsnc3Cl)CC1)=NO2 :: −0.05
CC(C)(C)C1CCC2(CC1)CC(C(=O)NCc1ccc(NS(C)(=O)=O)cc1)=NO2 (centres unmarked) [Example 2] :: −0.32
CC(C)(C)C1CCC2(CC1)CC(C(=O)NCc1ccncc1)=NO2 (centres unmarked) :: 23.79
CC(C)(C)[C@H]1CC[C@]2(CC1)CC(C(=O)N1CCN(c3ncccc3C(F)(F)F)CC1)=NO2 :: 0.22
CC(C)(C)[C@H]1CC[C@@]2(CC1)CC(C(=O)N1CCN(c3ncccc3C(F)(F)F)CC1)=NO2 :: 0.41
CC(C)(C)[C@H]1CC[C@@]2(CC1)CC(C(=O)N1CCCN(c3ncccc3Cl)CC1)=NO2 :: 0.13

**Query** Can you look up the measured VR1 (human) (% stimulation compared to 10 μM CP) of CC(C)(C)c1ccc(NC(=O)[C@H]2CC[C@@]3(CC2)CC(c2ccccc2)=NO3)cc1 for me?
**Result** 17

**Query** Can you look up the measured VR1 (human) (% stimulation compared to 10 μM CP) of CC(C)(C)[C@H]1CC[C@]2(CC1)CC(C(=O)N1CCN(c3ccc(O)cc3)CC1)=NO2 for me?
**Result** 2.84

**Query** Can you look up the measured VR1 (human) (% stimulation compared to 10 μM CP) of CC(C)(C)C1CCC2(CC1)CC(C(=O)N1CCCN(c3ncccc3Cl)CC1)=NO2 (centres unmarked) for me?
**Result** −0.05

**Query** Can you look up the measured VR1 (human) (% stimulation compared to 10 μM CP) of CC(C)(C)C1CCC2(CC1)CC(C(=O)NCc1ccc(NS(C)(=O)=O)cc1)=NO2 (centres unmarked) [Example 3] for me?
**Result** −1.29

**Query** Can you look up the measured VR1 (human) (% stimulation compared to 10 μM CP) of COc1cc2c(cc1OC)CN(C(=O)C1=NO[C@]3(CC[C@H](C(C)(C)C)CC3)C1)CC2 for me?
**Result** 24.24

**Query** Can you look up the measured VR1 (human) (% stimulation compared to 10 μM CP) of CC(C)(C)[C@H]1CC[C@@]2(CC1)CC(C(=O)NCc1ccncc1)=NO2 for me?
**Result** 91.72

---

Reported values of activation at 10 µM for individual entries
Biological target: VR1 (human) (Homo sapiens, UniProt Q8NER1)
Construct: expressed in transfected cells; host or cells: CHO K1 cells (ECACC)
Sequence (Q8NER1 whole entry): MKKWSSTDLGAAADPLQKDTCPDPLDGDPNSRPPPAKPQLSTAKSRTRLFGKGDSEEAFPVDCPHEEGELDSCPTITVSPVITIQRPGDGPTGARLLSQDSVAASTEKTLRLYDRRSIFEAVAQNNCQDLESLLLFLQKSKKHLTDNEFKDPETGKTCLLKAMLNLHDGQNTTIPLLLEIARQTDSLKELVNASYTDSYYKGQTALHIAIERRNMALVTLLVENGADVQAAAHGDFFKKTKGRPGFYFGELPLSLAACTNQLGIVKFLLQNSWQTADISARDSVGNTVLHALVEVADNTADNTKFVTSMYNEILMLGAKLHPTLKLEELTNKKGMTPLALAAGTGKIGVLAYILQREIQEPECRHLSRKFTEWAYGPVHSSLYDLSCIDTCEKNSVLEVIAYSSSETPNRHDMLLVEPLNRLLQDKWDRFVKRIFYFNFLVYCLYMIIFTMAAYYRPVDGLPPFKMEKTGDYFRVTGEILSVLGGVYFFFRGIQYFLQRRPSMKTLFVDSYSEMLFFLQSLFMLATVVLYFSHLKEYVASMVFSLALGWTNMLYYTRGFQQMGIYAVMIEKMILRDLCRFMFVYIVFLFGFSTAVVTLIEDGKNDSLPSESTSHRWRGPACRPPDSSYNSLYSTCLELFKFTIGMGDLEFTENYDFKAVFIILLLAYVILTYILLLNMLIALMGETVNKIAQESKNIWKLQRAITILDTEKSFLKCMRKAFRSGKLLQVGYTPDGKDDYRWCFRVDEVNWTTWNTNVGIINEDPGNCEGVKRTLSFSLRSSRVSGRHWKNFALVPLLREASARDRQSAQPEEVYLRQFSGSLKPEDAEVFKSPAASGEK
Test: Functional FLIPR Ca2+ inflow assay on VR1 (human), CHO K1 cells stably transfected with the VR1 gene
Assay type: cell-based
Conditions: CHO-K1; test compound 10 μM; Ca2+ signal relative to 10 μM capsaicin (CP); read-out: VR1 (human) (% stimulation compared to 10 μM CP)
// return numeric value only (unit: %, not printed)

COc1cccc(C2=NOC3(CCC(C(=O)Nc4ccc(C(C)(C)C)cc4)CC3)C2)c1 (stereo not shown) [Example 66] :: 53

**Query** # value lookup — system VR1 (human) (Homo sapiens, UniProt Q8NER1), readout activation at 10 µM, item CCC(C)(C)C1CCC2(CC1)CC(C(=O)NCc1ccc(NS(C)(=O)=O)c(F)c1)=NO2 (stereo not shown) [Example 80]
**Result** 35

**Query** # value lookup — system VR1 (human) (Homo sapiens, UniProt Q8NER1), readout activation at 10 µM, item CC(C)(C)C1CCC2(CC1)CC(C(=O)Nc1ccc(NS(C)(=O)=O)c(F)c1)=NO2 (stereo not shown) [Example 90]
**Result** 36

**Query** # value lookup — system VR1 (human) (Homo sapiens, UniProt Q8NER1), readout activation at 10 µM, item CC(C)(C)C1CCC2(CC1)CC(C(=O)NCc1ccc(N)cc1)=NO2 (stereo not shown) [Example 1]
**Result** 20.7

**Query** # value lookup — system VR1 (human) (Homo sapiens, UniProt Q8NER1), readout activation at 10 µM, item CC(C)(C)c1ccc(NC(=O)C2CCC3(CC2)CC(C(=O)N2CCN(c4ncccc4Cl)CC2)=NO3)cc1 (stereo not shown) [Example 84]
**Result** 33

**Query** # value lookup — system VR1 (human) (Homo sapiens, UniProt Q8NER1), readout activation at 10 µM, item CC(C)(C)C1CCC2(CC1)CC(C(=O)N1CCc3cc(O)c(O)cc3C1)=NO2 (stereo not shown) [Example 12]
**Result** 101

**Query** # value lookup — system VR1 (human) (Homo sapiens, UniProt Q8NER1), readout activation at 10 µM, item CC(C)(C)c1ccc(NC(=O)C2CCC3(CC2)CC(c2ccccc2)=NO3)cc1 (stereo not shown) [Example 50]
**Result** 15

**Query** # value lookup — system VR1 (human) (Homo sapiens, UniProt Q8NER1), readout activation at 10 µM, item CC(C)(C)C1CCC2(CC1)CC(C(=O)Nc1cccc3cnccc13)=NO2 (stereo not shown) [Example 4]
**Result** -0.33

**Query** # value lookup — system VR1 (human) (Homo sapiens, UniProt Q8NER1), readout activation at 10 µM, item CC(C)(C)[C@H]1CC[C@]2(CC1)CC(C(=O)NCc1ccc(NS(C)(=O)=O)c(F)c1)=NO2 [Example 25]
**Result** 0.16

**Query** # value lookup — system VR1 (human) (Homo sapiens, UniProt Q8NER1), readout activation at 10 µM, item CC(C)(C)[C@H]1CC[C@@]2(CC1)CC(C(=O)NCc1ccc(NS(C)(=O)=O)c(F)c1)=NO2 [Example 7]
**Result** -0.05

Data provenance is patent US7981883B2.
